Where do these numbers come from? They come from ChEMBL document CHEMBL1126763.

Items are presented alongside their recorded inhibition.
- experimental_system: Angiotensin II receptor (Rattus norvegicus) (UniProt P29089+P25095+P35351)
- protocol: Inhibitory activity on AII (100 ng/kg iv)-induced pressor response at 0.1 mg/kg po in conscious male Sprague-Dawley rats at 1 h.
- Format: functional, organism-based
- Parameters: dose 0.1 mg/kg
The reply should be a number in %, with the unit left off.

Here's what some known entries look like.
In [3]: df
Out[3]:
                              record_smiles  value_measured
0  CCOc1nc2cccc(C(=O)OCOC(=O)C(C)C)c2n1Cc1ccc(-c2ccccc2-c2nn[nH]n2)cc1              40
1  CCCCc1nc2cccc(C(=O)OCc3ccncc3)c2n1Cc1ccc(-c2ccccc2-c2nn[nH]n2)cc1              16
2  CCOc1nc2cccc(C(=O)OCOC(=O)OCC3CC3)c2n1Cc1ccc(-c2ccccc2-c2nn[nH]n2)cc1              49
3  CCCC(=O)OCOC(=O)c1cccc2nc(OCC)n(Cc3ccc(-c4ccccc4-c4nn[nH]n4)cc3)c12              84
4  CCOc1nc2cccc(C(=O)OCOC(=O)OC3CCCC3)c2n1Cc1ccc(-c2ccccc2-c2nn[nH]n2)cc1              14

Moving on to another compound below.
[Q] inhibition lookup needed for `CCOc1nc2cccc(C(=O)OCOC(=O)/C=C/c3ccccc3)c2n1Cc1ccc(-c2ccccc2-c2nn[nH]n2)cc1` , thanks.
[A] 36

====

Listing: inhibition of selected compounds
- experimental_system: Angiotensin II receptor (Rattus norvegicus) (UniProt P29089+P25095+P35351)
- protocol: Inhibitory activity on AII (100 ng/kg iv)-induced pressor response after administration at 0.1 mg/kg po in conscious male Sprague-Dawley rats at 24 h.
- Assay type: functional, organism-based
- Parameters: dose 0.1 mg/kg

Recorded results for 3 compounds are shown here.
compound	value_measured
CCOc1nc2cccc(C(=O)OC(C)OC(=O)OC(C)C)c2n1Cc1ccc(-c2ccccc2-c2nn[nH]n2)cc1 (centres undefined)	12%
CCCCc1nc2cccc(C(=O)OCCN3CCCCC3)c2n1Cc1ccc(-c2ccccc2-c2nn[nH]n2)cc1	28%
CCOc1nc2cccc(C(=O)OC(C)OC(=O)OC3CCCCC3)c2n1Cc1ccc(-c2ccccc2-c2nn[nH]n2)cc1 (centres undefined)	36%

[Q] Entry `CCCCc1nc2cccc(C(=O)O)c2n1Cc1ccc(-c2ccccc2-c2nnn(COC(=O)C(C)(C)C)n2)cc1.CCCCc1nc2cccc(C(=O)O)c2n1Cc1ccc(-c2ccccc2-c2nnnn2COC(=O)C(C)(C)C)cc1` : reported inhibition = ?
[A] 32%

====

- experimental_system: Angiotensin II receptor (Rattus norvegicus) (UniProt P29089+P25095+P35351)
- protocol: Inhibitory activity on AII (100 ng/kg iv)-induced pressor response after administration at 0.1 mg/kg po in conscious male Sprague-Dawley rats at 5 h.
- Format: functional, organism-based
- Parameters: dose 0.1 mg/kg
Here, each record is paired with measured inhibition data.
State just the number; it will be interpreted in %.

// known answers, use as guide
In [3]: df
Out[3]:
                                   molecule                       experimental_system  assay_endpoint  value_measured
0  CCCCOC(=O)c1cccc2nc(CCCC)n(Cc3ccc(-c4ccccc4-c4nn[nH]n4)cc3)c12  Angiotensin II receptor (Rattus norvegicus) (UniProt P29089+P25095+P35351)      inhibition              88
1  CCCCc1nc2cccc(C(=O)OCCN3CCOCC3)c2n1Cc1ccc(-c2ccccc2-c2nn[nH]n2)cc1  Angiotensin II receptor (Rattus norvegicus) (UniProt P29089+P25095+P35351)      inhibition              96
2  CCCCc1nc2cccc(C(=O)OCOC(=O)C(C)(C)C)c2n1Cc1ccc(-c2ccccc2-c2nn[nH]n2)cc1  Angiotensin II receptor (Rattus norvegicus) (UniProt P29089+P25095+P35351)      inhibition              92
3  CCOc1nc2cccc(C(=O)OCOC(=O)c3ccccc3)c2n1Cc1ccc(-c2ccccc2-c2nn[nH]n2)cc1  Angiotensin II receptor (Rattus norvegicus) (UniProt P29089+P25095+P35351)      inhibition              67

[Q] # get_value(readout='inhibition', item= `CCOc1nc2cccc(C(=O)OCOC(=O)C3CCCC3)c2n1Cc1ccc(-c2ccccc2-c2nn[nH]n2)cc1` )
[A] 62

[Q] Please give the result for CCOC(=O)OC(C)OC(=O)c1cccc2nc(OCC)n(Cc3ccc(-c4ccccc4-c4nn[nH]n4)cc3)c12 (configuration not stated) too.
[A] 81

[Q] Please give the result for `CCCCc1nc2cccc(C(=O)OCCN3CCCCC3)c2n1Cc1ccc(-c2ccccc2-c2nn[nH]n2)cc1` too.
[A] 62

====

- experimental_system: Angiotensin II receptor (Rattus norvegicus) (UniProt P29089+P25095+P35351)
- protocol: Inhibitory activity on AII (100 ng/kg iv)-induced pressor response after administration at 0.1 mg/kg po in conscious male Sprague-Dawley rats at 2 h.
- Assay type: functional, organism-based
- Parameters: dose 0.1 mg/kg
assay_endpoint: inhibition (%)
Give the value in % but do not write % after it.

Worked examples, 7 molecules total:
molecule	inhibition / %
CCOc1nc2cccc(C(=O)OCOC(=O)OC(C)C)c2n1Cc1ccc(-c2ccccc2-c2nn[nH]n2)cc1	79
CCOc1nc2cccc(C(=O)OCOC(=O)/C=C/c3ccccc3)c2n1Cc1ccc(-c2ccccc2-c2nn[nH]n2)cc1	80
CCCCc1nc2cccc(C(=O)OCc3oc(=O)oc3C)c2n1Cc1ccc(-c2ccccc2-c2nn[nH]n2)cc1	81
CCCCc1nc2cccc(C(=O)OCc3oc(=O)oc3C)c2n1Cc1ccc(-c2ccccc2-c2nnn(Cc3oc(=O)oc3C)n2)cc1.CCCCc1nc2cccc(C(=O)OCc3oc(=O)oc3C)c2n1Cc1ccc(-c2ccccc2-c2nnnn2Cc2oc(=O)oc2C)cc1	33
CCCCc1nc2cccc(C(=O)OC(C)OC(=O)OCC)c2n1Cc1ccc(-c2ccccc2-c2nn[nH]n2)cc1 (stereo not drawn)	84
CCOc1nc2cccc(C(=O)OC(C)OC(=O)OC(CC)CC)c2n1Cc1ccc(-c2ccccc2-c2nn[nH]n2)cc1 (stereo not drawn)	86
CCCC(=O)OCOC(=O)c1cccc2nc(OCC)n(Cc3ccc(-c4ccccc4-c4nn[nH]n4)cc3)c12	78

We now examine a further molecule.
[Q] Reported inhibition for Angiotensin II receptor (Rattus norvegicus) (UniProt P29089+P25095+P35351), given CCOc1nc2cccc(C(=O)OC(C)OC(=O)OC(C)C)c2n1Cc1ccc(-c2ccccc2-c2nn[nH]n2)cc1 (stereo not drawn) ?
[A] 84
